- Test system: MCF7 breast
- method.description: NCI tumour cell line growth inhibition, 48 h
observable: TGI

compound | test.target | observable | observed.measurement
CCc1c[n+]2c(cc1C1=CN3c4ccccc4[C@]45CCN6C/C(=C/CO)[C@H](C[C@H]64)[C@@H]([C@@H]1O)[C@H]35)-c1[nH]c3ccccc3c1CC2 | MCF7 breast | TGI | > 50 µM
c1ccc2cc(Cn3c(-c4cccc5ccccc45)[n+](Cc4ccc5ccccc5c4)c4c5ccccc5c5ccccc5c43)ccc2c1 | MCF7 breast | TGI | 1.2 µM
O=C(O)[C@@H](Cc1ccccc1)NS(=O)(=O)c1ccc(-c2ccccc2)cc1 | MCF7 breast | TGI | > 100 µM
Cc1cc(C(=O)NOCCO)c(Nc2ccc(I)cc2F)n(C)c1=O | MCF7 breast | TGI | > 100 µM
CN1C(=O)c2c(c3c4ccccc4n(C)c3c3c2c2ccccc2n3C)C1=O | MCF7 breast | TGI | > 100 µM
COc1cc2cc(C(=O)Nc3ccccc3)c(N)nc2cc1OC | MCF7 breast | TGI | > 100 µM
CC(=O)OC1CC[C@@]2(C)C(=CC[C@@H]3[C@@H]2CC[C@]2(C)Nc4c(cnn4-c4ccc(F)cc4)C[C@@H]32)C1 (some centres undefined) | MCF7 breast | TGI | > 95.6 µM
Cn1cc(-c2nc(-c3c[nH]c4ccccc34)cs2)c2cccnc21 | MCF7 breast | TGI | > 100 µM
O=C(Nc1ccc(-c2cn3ccccc3n2)cc1)c1cc(Br)ccc1O | MCF7 breast | TGI | > 100 µM
